- SYSTEM_NAME: T1, cyno pro-myostatin (cynomolgus monkey, Biotinylated for capture in the SPR assay (site not stated). The native form is a disulfide-linked homodimer, partly furin-cleaved; one chain is given.)
- T1 construct: also called proGDF8 (cynomolgus); cynomolgus monkey pro-myostatin
- ASSAY_REMARKS: SPR Biacore 8K, biotin-antigen captured
ENDPOINT_LABEL: Kd (nM)
Give your result in nM as a bare value.

Reference set (3 entries):
Ab106 (antibody, human IgG4 S228P, kappa, V domains shown) VH: EVQLVESGGGLVQPGGSLRLSCAASGSAFSSYGMSWVRQAPGKGLELVASINSNGGSTYYPDSVKGRFTISRDNAKNSLYLQMNSLRAEDTAVYYCARDLLVRFLEWAGYYGMDVWGQGTTVTVSS VL: DIVMTQSPLSLPVTPGEPASISCRSSQSLLHSSGHNFLHWYLQKPGQSPQLLIYEVSNRVSGVPDRFSGSGSGTDFTLKISRVEAEDVGVYYCMQQTQYPPTFGGGTKVEIKR = 0.152
Ab121 (antibody, human IgG4 S228P, kappa, V domains shown) VH: QVTLRESGPALVKPTQTLTLTCTVSGFSFSTSGMVVNWIRQPPGKALEWLAMIDWDADNIVYNSALKSRLTISKDTSKNQVVLTMTNMDPVDTATYYCAKDTGSGWFDAFDIWGQGTMVTVSS VL: DIVMTQSPDSLAVSLGERATINCKSSQSVLYSSTNQNFLAWYQQKPGQPPKLLIYQASTLQNGVPDRFSGSGSGTDFTLTISSLQAEDVAVYYCQQYLTTPYTFGGGTKVEIKR = 0.106
Ab108 (antibody, human IgG4 S228P, kappa, V domains shown) VH: EVQLVESGGGLVQPGGSLRLSCAASGSAFSSYGMSWVRQAPGKGLELVASINSNGGSTYYPDSVKGRFTISRDNAKNSLYLQMNSLRAEDTAVYYCARDLLVGFLQWSHYYGMDVWGQGTTVTVSS VL: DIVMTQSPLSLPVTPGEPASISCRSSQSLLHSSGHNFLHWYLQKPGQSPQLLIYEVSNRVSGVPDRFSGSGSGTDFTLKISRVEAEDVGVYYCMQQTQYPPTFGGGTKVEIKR = 0.159

// next item, Kd requested
Reported Kd of Ab109 (antibody, human IgG4 S228P, kappa, V domains shown, human IgG4 in the EM experiment; also called Ab109 Human IgG4) VH: EVQLVESGGGLVQPGGSLRLSCAASGFTFSSYGMSWVRQAPGKGLELVASFTGSGGTYYPDSVKGRFTISRDNAKNSLYLQMNSLRAEDTAVYYCARDLLIRFLEWSHYYGMDVWGQGTTVTVSS VL: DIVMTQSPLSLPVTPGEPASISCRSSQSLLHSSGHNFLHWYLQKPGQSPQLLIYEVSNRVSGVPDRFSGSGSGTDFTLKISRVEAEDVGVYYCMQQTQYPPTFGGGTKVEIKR : 0.128

Taken from patent US20260209325A1.
